# test target: soluble, disulfide-crosslinked HIV-1 CA hexamer (A14C/E45C/W184A/M185A) (HIV-1)
# measurement protocol: nanoDSF
readout: Kd (nM)
Expressed in nM, but write only the number.

What Kd value was documented for this binder, Ac-EIIAEDYDDDPVDYE-NH2 [PQBP1 15-mer peptide 15–6] ? 54

Every entry's value here was drawn from paper PMC10885737.
